Target: Hck (UniProt P08631)
Sequence (P08631 whole entry, looked up): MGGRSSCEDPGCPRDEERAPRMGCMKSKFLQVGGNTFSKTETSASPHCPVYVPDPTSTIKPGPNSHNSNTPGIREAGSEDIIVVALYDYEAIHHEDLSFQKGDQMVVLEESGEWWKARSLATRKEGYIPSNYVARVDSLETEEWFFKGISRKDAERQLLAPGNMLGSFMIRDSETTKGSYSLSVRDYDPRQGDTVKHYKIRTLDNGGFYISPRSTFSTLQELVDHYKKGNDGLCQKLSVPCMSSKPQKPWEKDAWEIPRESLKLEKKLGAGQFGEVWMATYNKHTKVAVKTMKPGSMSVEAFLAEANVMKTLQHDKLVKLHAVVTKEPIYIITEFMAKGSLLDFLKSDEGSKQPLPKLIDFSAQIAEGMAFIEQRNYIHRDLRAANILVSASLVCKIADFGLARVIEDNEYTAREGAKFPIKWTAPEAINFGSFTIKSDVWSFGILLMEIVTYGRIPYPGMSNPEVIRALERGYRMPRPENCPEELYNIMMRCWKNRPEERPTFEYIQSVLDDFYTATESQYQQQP
Experiment: phosphorylation enrichment, bacterial display (enrichment ratio); higher = better substrate or ligand; peptides without Tyr show the background;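 further: 11-residue human phosphosite peptides and single-mutation variants displayed on the E. coli surface, counted by deep sequencing, each peptide's frequency after selection divided by its frequency in the unselected input library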;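 further: frequency after pTyr selection over input frequency; kinase dosed for 20-30% of maximal phosphorylation in three min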
phosphorylation enrichment overview

{"SEQ TEXT": "GDSVQYNRTTD [MLPH_Y454_P451S]", "phosphorylation enrichment": 0.498}
{"SEQ TEXT": "RALRHYFKLNI [ETV6_Y401_YF]", "phosphorylation enrichment": 0.377}
{"SEQ TEXT": "TSEASYFKSLN [NGEF_Y288_YF]", "phosphorylation enrichment": 0.359}
{"SEQ TEXT": "TNDMRYPMKSE [TGDS_Y302]", "phosphorylation enrichment": 0.438}
{"SEQ TEXT": "AVDDKYSRREE [SART1_Y685_I681V]", "phosphorylation enrichment": 0.533}
{"SEQ TEXT": "WANPEYTGGFK", "phosphorylation enrichment": 0.575}
{"SEQ TEXT": "EPSLDYMVTKI [CPS1_Y768]", "phosphorylation enrichment": 0.566}
{"SEQ TEXT": "DDIPLYLKGGV [COX7A2_Y44_E40D]", "phosphorylation enrichment": 0.513}
{"SEQ TEXT": "MDDPRYGVCPL [ZNF100_Y6_M8V]", "phosphorylation enrichment": 0.715}
{"SEQ TEXT": "LITLVYGCSRQ [TMPRSS6_Y290_S288L]", "phosphorylation enrichment": 0.721}
{"SEQ TEXT": "LTMAPYSSVSL [FAM81A_Y24]", "phosphorylation enrichment": 0.495}
{"SEQ TEXT": "TNITEYCRDLI [RECQL_Y492_K487T]", "phosphorylation enrichment": 0.569}
{"SEQ TEXT": "RQSRNYLGGFA [SYK_Y47]", "phosphorylation enrichment": 0.483}
{"SEQ TEXT": "SSVKPYRVYCD [FGB_Y266]", "phosphorylation enrichment": 0.442}

* * *

Molecular target: Fes (UniProt P07332)
Sequence (P07332 whole entry, looked up): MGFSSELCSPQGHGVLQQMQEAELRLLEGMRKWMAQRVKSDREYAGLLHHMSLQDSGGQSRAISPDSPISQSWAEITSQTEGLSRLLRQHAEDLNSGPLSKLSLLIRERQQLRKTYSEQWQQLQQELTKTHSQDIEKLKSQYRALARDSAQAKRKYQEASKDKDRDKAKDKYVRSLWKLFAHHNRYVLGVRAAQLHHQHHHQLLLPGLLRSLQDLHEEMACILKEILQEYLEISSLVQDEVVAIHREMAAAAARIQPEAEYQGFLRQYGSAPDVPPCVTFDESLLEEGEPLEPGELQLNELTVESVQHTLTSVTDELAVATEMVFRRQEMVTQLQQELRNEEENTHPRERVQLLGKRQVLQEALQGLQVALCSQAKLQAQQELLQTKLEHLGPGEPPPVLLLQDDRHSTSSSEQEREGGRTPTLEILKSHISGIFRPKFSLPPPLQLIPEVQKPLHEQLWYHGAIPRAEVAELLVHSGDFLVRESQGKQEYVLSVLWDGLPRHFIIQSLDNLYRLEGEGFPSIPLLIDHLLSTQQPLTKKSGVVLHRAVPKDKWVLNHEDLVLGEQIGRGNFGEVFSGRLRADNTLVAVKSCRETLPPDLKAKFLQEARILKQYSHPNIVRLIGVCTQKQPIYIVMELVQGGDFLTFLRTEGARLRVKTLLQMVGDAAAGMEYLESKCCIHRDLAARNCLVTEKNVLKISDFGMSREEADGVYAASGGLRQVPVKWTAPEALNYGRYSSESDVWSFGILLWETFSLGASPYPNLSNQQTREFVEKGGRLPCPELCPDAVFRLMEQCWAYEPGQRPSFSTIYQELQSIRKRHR
Assay: phosphorylation enrichment, bacterial display (enrichment ratio); higher = better substrate or ligand; peptides without Tyr show the background
MEASUREMENT NAME: phosphorylation enrichment

{"SEQ TEXT": "EARRVYGDIIF [ALDH5A1_Y175_H180Y_YF]", "MEASUREMENT NAME": "phosphorylation enrichment", "ENDPOINT RESULT": 0.897}
{"SEQ TEXT": "RLLRGHDQSAF [HLA-C_Y137_Y137H_YF]", "MEASUREMENT NAME": "phosphorylation enrichment", "ENDPOINT RESULT": 0.738}
{"SEQ TEXT": "QRRLVYFERGA [RYR1_Y245_G248R_YF]", "MEASUREMENT NAME": "phosphorylation enrichment", "ENDPOINT RESULT": 0.827}
{"SEQ TEXT": "TALFIYIRPKA [OR10C1_Y258]", "MEASUREMENT NAME": "phosphorylation enrichment", "ENDPOINT RESULT": 1.22}
{"SEQ TEXT": "GLALRYLSDHS [VWF_Y1584]", "MEASUREMENT NAME": "phosphorylation enrichment", "ENDPOINT RESULT": 0.838}
{"SEQ TEXT": "WFPANYVKLLN [ITSN1_Y1132_S1137N]", "MEASUREMENT NAME": "phosphorylation enrichment", "ENDPOINT RESULT": 1.14}
{"SEQ TEXT": "GRRNTYYASIA [ACADM_Y352]", "MEASUREMENT NAME": "phosphorylation enrichment", "ENDPOINT RESULT": 0.849}
{"SEQ TEXT": "IRTIDYRFTVW [IDS_Y497_YF]", "MEASUREMENT NAME": "phosphorylation enrichment", "ENDPOINT RESULT": 1.2}
{"SEQ TEXT": "SYTDPYAQPPL [KMT2D_Y2378]", "MEASUREMENT NAME": "phosphorylation enrichment", "ENDPOINT RESULT": 0.902}
{"SEQ TEXT": "NSRYTYKLEVK [USH2A_Y3747]", "MEASUREMENT NAME": "phosphorylation enrichment", "ENDPOINT RESULT": 1.29}
{"SEQ TEXT": "VTRKEYFIFLE [CAMKV_Y95]", "MEASUREMENT NAME": "phosphorylation enrichment", "ENDPOINT RESULT": 1.06}
{"SEQ TEXT": "DAKTIYDFTDT [PDK1_Y136_A134T]", "MEASUREMENT NAME": "phosphorylation enrichment", "ENDPOINT RESULT": 1.07}
{"SEQ TEXT": "ILGRTHYVNHE [NEDD4_Y627_Y627H]", "MEASUREMENT NAME": "phosphorylation enrichment", "ENDPOINT RESULT": 0.593}
{"SEQ TEXT": "VNYGAYINYFK [GLB1_Y488_D491Y]", "MEASUREMENT NAME": "phosphorylation enrichment", "ENDPOINT RESULT": 1.06}
